- assay-details: in vitro
- Format: cell-based
- run-parameters: African green monkey
property: CC50 at 24 h

Q: Quick check: CC50 at 24 h of [2H]C1([2H])CC[C@@H](C[C@@H](C#N)NC(=O)[C@@H]2[C@@H]3[C@H](CN2C(=O)[C@@H](NC(=O)C(F)F)C(C)(C)C)C3(C)C)C(=O)N1 ?
Ans: > 200 µM

Q: Dear colleague, I am looking for the recorded CC50 at 24 h of the following compound: CC(C)(C)[C@H](NC(=O)C(F)F)C(=O)N1C[C@H]2[C@@H]([C@H]1C(=O)N[C@H](C#N)C[C@@H]1CCCNC1=O)C2(C)C
Ans: > 200 µM
